All figures here come from patent US10214546B2.

Test system: adenosine uptake into HeLa cells
Experiment: [3H]Adenosine uptake assay in HeLa cells
Format: cell-based
Settings: Homo sapiens, HeLa, [3H]adenosine accumulation in HeLa cells; compound range 10 μM to 0.032 nM; read-out: ADU inhibition IC50
Lab note: cut-off is 5000 nM. Strictly less in IC50 is Condition met. Exactly 5000 nM or more is Condition not met.

[[record]]
molecule = "C[C@@](O)(c1ccc(-c2nc([C@H]3CN4C(=O)CC[C@@H]4CO3)n3ccnc(N)c23)cc1)c1cccc(C(F)(F)F)c1"
labelclass = "Condition met"

[[record]]
molecule = "CCOc1cc([C@](C)(O)c2cccc(C(F)(F)F)c2)cc(F)c1-c1nc([C@@H]2CC[C@H]3CCC(=O)N3C2)n2ccnc(N)c12"
labelclass = "Condition not met"

[[record]]
molecule = "C[C@@](O)(c1ccc(-c2nc([C@@H]3CC[C@H]4C(C(F)(F)F)CC(=O)N4C3)n3ccnc(N)c23)cc1)c1cccc(C(F)(F)F)c1 (stereo partly drawn)"
labelclass = "Condition met"

[[record]]
molecule = "Cc1ccc(C(F)(F)F)cc1C(O)c1ccc(-c2nc([C@@H]3CC[C@H]4CCC(=O)N4C3)n3ccnc(N)c23)cc1 (stereo partly drawn)"
labelclass = "Condition met"

[[record]]
molecule = "C[C@@](O)(c1ccc(-c2nc([C@@H]3CC[C@H]4CCC(=O)N4C3)n3c(Cl)cnc(N)c23)cc1)c1cccc(C2CC2)c1"
labelclass = "Condition met"

[[record]]
molecule = "CC(C)C(O)(c1ccc(-c2nc([C@@H]3CC[C@H]4CCC(=O)N4C3)n3ccnc(N)c23)cc1)c1cccc(C(F)(F)F)c1 (stereo partly drawn)"
labelclass = "Condition met"


---

Test system: adenosine uptake into HeLa cells
Assay: [3H]Adenosine uptake assay in HeLa cells
Type: cell-based
Settings: Homo sapiens, HeLa, [3H]adenosine accumulation in HeLa cells; compound range 10 μM to 0.032 nM; read-out: ADU inhibition IC50
pIC50: −log10 of the molar value.
reportedMetric: pIC50

[[record]]
compound = "Cc1cc([C@@](C)(O)c2cccc(C(F)(F)F)c2)ccc1-c1nc([C@@H]2CC[C@H]3CCC(=O)N3C2)n2ccnc(N)c12"
reportedmetric = "pIC50"
readoutvalue = 6.31

[[record]]
compound = "CC(O)(c1ccc(-c2nc([C@@H]3CC[C@H]4CCC(=O)N4C3)n3ccnc(N)c23)cc1)c1ccccc1C(F)(F)F (stereo partly shown)"
reportedmetric = "pIC50"
readoutvalue = 5.32

[[record]]
compound = "C[C@@](O)(c1ccc(-c2nc([C@@H]3CC[C@H]4CCCN4C3)n3ccnc(N)c23)cc1)c1cccc(C(F)(F)F)c1"
reportedmetric = "pIC50"
readoutvalue = 5.64

[[record]]
compound = "CC(C)C(C)(O)c1ccc(-c2nc([C@@H]3CC[C@H]4CCC(=O)N4C3)n3ccnc(N)c23)cc1 (stereo partly shown)"
reportedmetric = "pIC50"
readoutvalue = 5.16


---

Target: BTK enzyme (recombinant full-length BTK, hBTK) (Homo sapiens (Human), UniProt Q06187)
Sequence (Q06187 whole entry): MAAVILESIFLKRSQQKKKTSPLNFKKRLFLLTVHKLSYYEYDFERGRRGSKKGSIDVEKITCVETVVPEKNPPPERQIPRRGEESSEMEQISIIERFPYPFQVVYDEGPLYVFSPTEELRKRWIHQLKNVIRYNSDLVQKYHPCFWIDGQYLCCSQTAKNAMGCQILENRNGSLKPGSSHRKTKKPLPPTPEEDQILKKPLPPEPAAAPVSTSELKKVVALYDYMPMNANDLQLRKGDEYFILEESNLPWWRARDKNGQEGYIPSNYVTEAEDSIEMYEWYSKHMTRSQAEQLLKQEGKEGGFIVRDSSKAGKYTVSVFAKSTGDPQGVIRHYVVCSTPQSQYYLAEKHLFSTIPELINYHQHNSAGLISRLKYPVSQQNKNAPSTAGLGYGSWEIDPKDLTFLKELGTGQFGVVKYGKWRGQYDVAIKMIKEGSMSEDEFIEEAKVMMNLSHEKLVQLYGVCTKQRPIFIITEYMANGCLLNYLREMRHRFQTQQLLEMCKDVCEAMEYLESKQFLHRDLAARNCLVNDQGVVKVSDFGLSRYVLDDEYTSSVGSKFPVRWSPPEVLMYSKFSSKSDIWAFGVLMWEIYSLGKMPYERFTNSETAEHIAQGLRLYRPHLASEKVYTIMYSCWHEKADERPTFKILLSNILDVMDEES
Test: BTK enzymatic activity LANCE TR-FRET assay
Details: 50 pM hBTK, 25 μM ATP, 2 μM biotin-A5-peptide; compound range 1 μM to 0.017 nM; read-out: BTK binding IC50
pIC50: −log10 of the molar value.
Cut-off 8 on pIC50, inclusive. At or above means class 1; below means class 0.

[[record]]
molecule = "CC1(C)C[C@@H]2CC[C@@H](c3nc(-c4ccc(C(C)(O)c5cccc(C(F)(F)F)c5)cc4F)c4c(N)nccn34)CN2C1=O (some centres unmarked) [Example 196]"
labelclass = "class 0"

[[record]]
molecule = "C[C@@](O)(c1ccc(-c2nc([C@@H]3CC[C@H]4CCC(=O)N4C3)n3ccnc(N)c23)cc1)c1cccc(C2CC2)c1"
labelclass = "class 1"

[[record]]
molecule = "COc1ccccc1[C@@](C)(O)c1ccc(-c2nc([C@@H]3CC[C@H]4CCC(=O)N4C3)n3ccnc(N)c23)cc1"
labelclass = "class 0"

[[record]]
molecule = "C[C@@](O)(c1ccc(-c2nc([C@@H]3CC[C@H]4CCC(=O)N4C3)n3ccnc(N)c23)cc1)c1cccc(CC(F)(F)F)c1"
labelclass = "class 1"

[[record]]
molecule = "Nc1nccn2c([C@@H]3CC[C@H]4CCC(=O)N4C3)nc(-c3ccc(C(O)c4cccc(C(F)(F)F)c4)cc3)c12 (some centres unmarked) [Example 73]"
labelclass = "class 1"

[[record]]
molecule = "C[C@](O)(c1ccc(-c2nc([C@@H]3CC[C@H]4CCC(=O)N4C3)n3ccnc(N)c23)cc1)c1cccc(C2CCC2)c1"
labelclass = "class 1"

